Test system: NCI/ADR-RES ovarian
Assay: NCI-60 one-dose screen, 48 h
Conditions: 10 µM unless noted
This is part of a sample that, as a whole, favours compounds with a hit. Of some 83,000 tested, about 20% had one in any assay. Active and inactive are the calls of the source. The calls were made as follows: active = growth percent below 10; inactive = the rest.
Respond with a class label; see active, inactive

Please review the following examples before continuing.
compound: C#CCn1cnc2cnc(Nc3cccc(NC(=O)CCl)c3)nc21
testTarget: NCI/ADR-RES ovarian
answerLabel: active
//
compound: CCN(CC)/C([O-])=c1\cccc\c1=C1\N=C(c2ccccc2)N=C1[n+]1ccc(-c2ccccc2)cc1
testTarget: NCI/ADR-RES ovarian
answerLabel: inactive
//
compound: CCOC(=O)n1cc(-c2nonc2-c2cn(C)c3ccc(OC)cc23)c2cc(F)ccc21
testTarget: NCI/ADR-RES ovarian
answerLabel: inactive
//
compound: O=C1/C(=C/c2cn(-c3ccccc3)nc2-c2ccccc2)SC(=S)N1c1ccccc1
testTarget: NCI/ADR-RES ovarian
answerLabel: inactive
//
compound: C=C(CN1CC=CCC1)[C@@H]1CC[C@]2(COC(C)=O)CC[C@]3(C)[C@H](CC[C@@H]4[C@@]5(C)CC[C@H](O)C(C)(C)[C@@H]5CC[C@]43C)[C@@H]12
testTarget: NCI/ADR-RES ovarian
answerLabel: inactive
//
compound: CCCCC(NC(=O)CN1C(=O)/C(=C/C(C)=C/c2ccccc2)SC1=S)C(=O)O (centres undefined)
testTarget: NCI/ADR-RES ovarian
answerLabel: inactive
//
compound: COc1ccc(-c2nnc3n(C)c(=O)c4ccccc4n23)cc1O
testTarget: NCI/ADR-RES ovarian
answerLabel: inactive
//
compound: COc1cc(OC)cc(-c2ccc(-c3ccc(C(=N)N)cn3)s2)c1
testTarget: NCI/ADR-RES ovarian
answerLabel: inactive

Inquiry: Assay outcome for `O=S(=O)(Nc1cc(Sc2cccc3cccnc23)c(O)c2ccccc12)c1ccc(F)cc1` : what was it?
Reply text: active

====

Test system: MDA-MB-435 melanoma
Test: NCI-60 one-dose screen, 48 h (100 = growth as untreated, 0 = no growth, -100 = all killed)
Details: 10 µM unless noted
The panel holds about 83,000 compounds, 20% with a hit somewhere; the sample as a whole holds those more often.
Lab note: compare growth against 40%. Equal or greater, write true (1). Smaller, write false (0).

compound: COc1cc(Nc2nc3ccccc3cc2C(=O)Nc2ccc(F)c(F)c2)cc(OC)c1OC
answerLabel: false (0)

compound: N#C/C(=N\Nc1ccc(Cl)cc1)C(=O)Nc1cc(-c2ccccc2)nn1-c1ccccc1
answerLabel: false (0)

compound: Cc1ccc(S(=O)(=O)Nc2cc(Sc3ccccc3)c(O)c3ccccc23)cc1
answerLabel: false (0)

Inquiry: growth >= 40% for COC1/C=C/OC2(C)Oc3c(C)c(O)c4c(O)c(c(C=NOC(c5ccccc5)c5ccccc5)c(O)c4c3C2=O)NC(=O)/C(C)=C/C=C/C(C)C(O)C(C)C(O)C(C)C(OC(C)=O)C1C (configuration not stated) ?
Reply text: false (0)

Inquiry: Record: `Cc1ccc(S(=O)(=O)OC[C@@]2(C)CC[C@]3(C)CC[C@]4(C)C(=CC[C@@H]5[C@@]6(C)CCCNC(C)(C)[C@@H]6CC[C@]54C)[C@@H]3C2)cc1`
Reply text: false (0)

Inquiry: Record: `Nc1nc(Nc2ccc(F)cc2)nn1C(=O)c1cc(Cl)ccc1Cl`
Reply text: true (1)
